Test system: MDA-MB-231
assay.details: cell viability relative to vehicle unstimulated control (fraction); higher = more viable cells
condition.context: pre-treatment time: 18 h then 24 h IFNg/TNF
compounds and their reported cell viability
Answer as a number with no unit attached.

Examples with answers:
compound	cell viability
C=C1CC[C@@H]2[C@](C)(CO[C@@H]3O[C@H](CO)[C@@H](O)[C@H](O)[C@H]3O)CCC[C@@]2(C)[C@@H]1CCC1=CCOC1=O [Neoandrographolide] (compound dose: 10 uM)	0.953
C[C@@H]1C(=O)O[C@H]2C[C@@]34O[C@@H]5OC(=O)[C@H](O)[C@@]56[C@H](C(C)(C)C)[C@H](O)C(OC3=O)[C@]64[C@]21O (stereo partly drawn) [Ginkgolide J] (compound dose: 10 uM)	0.962

Here is the next item to consider.
Enter measured cell viability, system MDA-MB-231, for the compound shown: C[C@H]1[C@H](OC(=O)CCC(=O)O)O[C@@H]2O[C@@]3(C)CC[C@H]4[C@H](C)CC[C@@H]1[C@@]24OO3 [Artesunate] (compound dose: 10 uM);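 note: viability of the cells left after supernatant collection, read with Deep Blue dye added for 4 h, as absorbance at 570 nm minus 600 nm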
0.909
